- system: T1, human SIRPα variant 2 (human, UniProt P78324 31-504)
- T1 construct: full length ORF on transfected CHO-K1 cells; also called hSIRPαV2; SIRPαV2
- T1 sequence (P78324 other isoform, or with tags, fused parts or gaps mutant limits assumed): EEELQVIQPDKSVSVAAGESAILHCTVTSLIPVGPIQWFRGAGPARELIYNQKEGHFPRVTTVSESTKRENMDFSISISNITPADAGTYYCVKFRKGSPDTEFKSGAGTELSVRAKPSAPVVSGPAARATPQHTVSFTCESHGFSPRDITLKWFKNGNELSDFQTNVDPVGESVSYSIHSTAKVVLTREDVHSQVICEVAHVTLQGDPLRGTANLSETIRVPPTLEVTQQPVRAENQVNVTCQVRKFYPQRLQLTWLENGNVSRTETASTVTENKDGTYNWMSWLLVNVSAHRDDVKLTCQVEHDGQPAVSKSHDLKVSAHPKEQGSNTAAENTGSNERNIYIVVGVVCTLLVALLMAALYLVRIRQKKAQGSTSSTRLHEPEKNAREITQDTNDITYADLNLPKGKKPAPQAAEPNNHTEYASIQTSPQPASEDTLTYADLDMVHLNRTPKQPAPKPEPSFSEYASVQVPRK
- protocol.text: CELISA, CHO-K1 transfectants; average of two experiments
# reported EC50; entries follow
quantity.name: EC50 (nM)

binder="hSIRPα.50A.H1L5 (antibody, human IgG4 S228P, kappa, V domains shown, human IgG4 S228P, kappa; also called hSIRPα.50H1L5) VH: EVQLQQSGAEVVKPGASVKVSCKASGFTFTNYYIHWVRQAPGQGLEWIGWIYPGNVNTKYNEKFKARVTITADKSTSTAYMDLSSLRSEDTAVYYCARPTIIATDFDVWGQGTTVTVSS VL: DIVLTQSPSFLSASVGDRVTITCKASQGVGTAVGWYQQKPGKSPKLLIYWASTRHTGVPDRFSGSGSGTEFTLTISNLQPEDFAAYYCQQYSTYPFTFGGGTKLEIKR" value_units=nM quantitative_readout=0.848
binder="hSIRPα.50A.H3L1 (antibody, human IgG4 S228P, kappa, V domains shown, human IgG4 S228P, kappa; also called hSIRPα.50H3L1) VH: EVQLVQSGAEVVKPGASVMISCKASGFTFTNYYIHWVRQRPGQGLEWIGWIYPGNVNTKYNEKFKARVIMTADKSTSTVYMQLSSLTSEDTAVYYCARPTIIATDFDVWGQGTLVTVSS VL: DIVLTQSPSFLSASVGDRVTITCKASQGVGTAVGWYQQKPGKAPKLLIYWASTRHTGVPDRFSGSGSGTEFTLTISSLQPEDFAAYYCQQYSTYPFTFGGGTKLEIKR" value_units=nM quantitative_readout=1.06
binder="hSIRPα.50A.H1L4 (antibody, human IgG4 S228P, kappa, V domains shown, human IgG4 S228P, kappa; also called hSIRPα.50H1L4) VH: EVQLQQSGAEVVKPGASVKVSCKASGFTFTNYYIHWVRQAPGQGLEWIGWIYPGNVNTKYNEKFKARVTITADKSTSTAYMDLSSLRSEDTAVYYCARPTIIATDFDVWGQGTTVTVSS VL: DIQMTQSPSSLSASVGDRVTITCKASQGVGTAVGWYQKKPGKVPKLLIYWASTRHTGVPDRFSGSGSGTDFTLTINGLQPEDVATYYCQQYSTYPFTFGGGTKLEIKR" value_units=nM quantitative_readout=1.62
